- MEASURED_ON: endogenously expressed human MSR1 on PMA-treated THP-1 cells (human) (UniProt P21757)
- Sequence (P21757 whole entry): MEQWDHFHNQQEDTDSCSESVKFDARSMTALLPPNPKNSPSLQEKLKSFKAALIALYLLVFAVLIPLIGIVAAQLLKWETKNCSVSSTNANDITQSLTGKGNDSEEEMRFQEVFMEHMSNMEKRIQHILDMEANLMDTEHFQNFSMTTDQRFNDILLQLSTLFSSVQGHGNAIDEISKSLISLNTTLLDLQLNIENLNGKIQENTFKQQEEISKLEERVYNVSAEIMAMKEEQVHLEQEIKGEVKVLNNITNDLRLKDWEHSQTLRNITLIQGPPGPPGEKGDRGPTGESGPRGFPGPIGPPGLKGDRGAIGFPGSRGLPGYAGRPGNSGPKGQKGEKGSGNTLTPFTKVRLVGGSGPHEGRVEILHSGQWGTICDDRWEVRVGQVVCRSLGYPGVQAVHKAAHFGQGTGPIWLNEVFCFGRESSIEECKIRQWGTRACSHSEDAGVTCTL
- EXPERIMENTAL_PROTOCOL: ECL cell binding, PMA-treated THP-1
I'd appreciate it if you could supply binding signal ratio to isotype control (11 nM) values for the items below.
Numbers only, in fold.

{"columns": ["BINDER", "UNITS_OF_MEASURE", "READOUT_NUMBER"],
 "data": [
  ["H2aM25695N (antibody, mouse IgG2a, V domains shown) VH: QVQLQESGPGLVKPSETLSLTCTVTGGSISRNYWSWIRQPPGKGLEWIGYIYYSGSINYNPSLKSRVTISVDMSKNQFSLKLNSVTAADTAVYYCARDRWNWKYGMDVWGQGTTVIVSS VL: EIVLTQSPGTLSLSPGERATLSCRASQTVRNSYLAWYHQKPGQAPRLLIYGASSRATGIPDRFSGSGSGTDFTLTISRLEPEDFAVYYCQQYGSSYWTFGQGTKMEIKR", "fold", 8]
]}

Prompt line: Dear colleague, I am looking for the recorded binding signal ratio to isotype control (11 nM) of the following binder: H1H21234N-N297Q (antibody, human IgG1, V domains shown) VH: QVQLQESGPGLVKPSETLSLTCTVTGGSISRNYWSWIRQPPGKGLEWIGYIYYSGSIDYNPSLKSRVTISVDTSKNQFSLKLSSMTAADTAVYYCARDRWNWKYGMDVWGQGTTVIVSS VL: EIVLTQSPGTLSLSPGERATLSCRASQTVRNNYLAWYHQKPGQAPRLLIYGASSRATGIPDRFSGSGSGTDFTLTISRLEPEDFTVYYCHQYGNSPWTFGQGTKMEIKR
Response line: 25
